These measurements were taken from patent US6410249B1.

Biological target: receptor 5.24 (Carassius auratus)
Construct: The receptor 5.24 full length cDNA detects 1-2 bands in genomic DNA blots; expressed in transfected cells; host or cells: HEK 293 cells expressing SV40 large T antigen (293-TSA)
Sequence (Q9PW88 25-877): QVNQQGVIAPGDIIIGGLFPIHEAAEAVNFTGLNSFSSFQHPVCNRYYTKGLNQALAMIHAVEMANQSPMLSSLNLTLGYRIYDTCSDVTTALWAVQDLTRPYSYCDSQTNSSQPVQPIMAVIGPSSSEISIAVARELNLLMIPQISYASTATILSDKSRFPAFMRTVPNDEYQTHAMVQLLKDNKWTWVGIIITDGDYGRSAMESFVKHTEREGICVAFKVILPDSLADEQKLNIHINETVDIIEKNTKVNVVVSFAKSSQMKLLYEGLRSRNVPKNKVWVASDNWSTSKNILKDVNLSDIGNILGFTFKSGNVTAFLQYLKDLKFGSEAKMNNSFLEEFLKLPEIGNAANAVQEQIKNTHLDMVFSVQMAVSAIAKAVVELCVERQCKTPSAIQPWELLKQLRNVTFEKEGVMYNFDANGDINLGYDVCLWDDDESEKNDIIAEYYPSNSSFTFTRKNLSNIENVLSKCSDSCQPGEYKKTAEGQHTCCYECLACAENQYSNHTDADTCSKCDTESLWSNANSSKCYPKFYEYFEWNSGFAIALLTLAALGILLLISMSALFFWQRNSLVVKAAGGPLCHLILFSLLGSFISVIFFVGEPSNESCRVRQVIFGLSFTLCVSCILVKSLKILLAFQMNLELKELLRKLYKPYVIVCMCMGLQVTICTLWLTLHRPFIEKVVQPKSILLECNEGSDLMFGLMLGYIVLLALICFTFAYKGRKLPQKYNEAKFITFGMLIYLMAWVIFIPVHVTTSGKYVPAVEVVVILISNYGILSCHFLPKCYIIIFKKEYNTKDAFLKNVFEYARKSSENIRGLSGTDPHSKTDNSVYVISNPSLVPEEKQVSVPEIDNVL
Assay: 3H-L-arginine saturation binding to membranes of receptor 5.24-expressing HEK 293 cells
Set-up: species or system goldfish
Details: summary statement; read-out: Kd (high affinity interaction)
pKd: −log10 of the molar value.
property-measured: pKd

compound="N=C(N)NCCC[C@H](N)C(=O)O [L-Arginine]" tested_target="receptor 5.24 (Carassius auratus)" result=~7.00

Okay, now this compound:
For the compound NCCCC[C@H](N)C(=O)O [L-Lysine] , give its measured pKd value. ~7.00
